Provenance of the data: PubChem BioAssay AID2060906

Tested on: 485176-168-R4-J1-PDC complex spheroid growth;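 note: spheroids exposed to compounds for seven days before readout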
Experiment: Anticancer human tumor 485176-168-R4-J1-PDC patient-derived pancreatic adenocarcinoma cell line growth inhibition [RAS]
Conditions: curve of first compound; second compound 0.0949 µM
Description: RAS pathway inhibitors in Combinations in Complex Spheroids A high-throughput screen of multi-cell type tumor spheroids was designed to identify active combinations of RAS pathway inhibitors and targeted small molecules. Complex spheroids include a stromal component modeled by human endothelial cells (HUVEC) and fibroblasts modeled by human mesenchymal stem cells (MSCs). […] Compounds. […] If the clinical Cmax for an agent had not been determined, the highest concentration tested was 10 microM. […]
pIC50: −log10 of the molar value.
Reported metric: pIC50

[
  {
    "Compound": "CC(=O)OC12COC1CC(O)C1(C)C(=O)C(O)C3=C(C)C(OC(=O)C(O)C(NC(=O)OC(C)(C)C)c4ccccc4)CC(O)(C(OC(=O)c4ccccc4)C21)C3(C)C (configuration not stated) + CCn1c(-c2cc(N3CCN(C)CC3)cnc2C(C)OC)c2c3cc(ccc31)-c1csc(n1)CC(NC(=O)C1CC1C)C(=O)N1CCCC(N1)C(=O)OCC(C)(C)C2",
    "Target system": "485176-168-R4-J1-PDC complex spheroid growth",
    "Reported": "> 7.50"
  },
  {
    "Compound": "C=CC(=O)N1CCN(c2nc(OCC3CCCN3C)nc3c(F)c(-c4nc(N)cc(C)c4C(F)(F)F)c(Cl)cc23)C(C)C1 (configuration not stated) + CCn1c(-c2cc(N3CCN(C)CC3)cnc2C(C)OC)c2c3cc(ccc31)-c1csc(n1)CC(NC(=O)C1CC1C)C(=O)N1CCCC(N1)C(=O)OCC(C)(C)C2",
    "Target system": "485176-168-R4-J1-PDC complex spheroid growth",
    "Reported": "< 6.00"
  },
  {
    "Compound": "CC1(C)CCC(Nc2ncc(C(F)(F)F)c(-c3c[nH]c4c(P(C)(C)=O)c(C#N)ccc34)n2)CN1 (configuration not stated) + CCn1c(-c2cc(N3CCN(C)CC3)cnc2C(C)OC)c2c3cc(ccc31)-c1csc(n1)CC(NC(=O)C1CC1C)C(=O)N1CCCC(N1)C(=O)OCC(C)(C)C2",
    "Target system": "485176-168-R4-J1-PDC complex spheroid growth",
    "Reported": "< 6.52"
  },
  {
    "Compound": "Cc1nc(N2CCC3(CC2)COC(C)C3N)c(CO)nc1Sc1ccnc(N)c1Cl (configuration not stated) + CCn1c(-c2cccnc2C(C)OC)c2c3cc(ccc31)N1CCOC(CC(NC(=O)C(C(C)C)N(C)C(=O)C3(F)CCN(C(=O)C#CC(C)(C)N(C)C)CC3)C(=O)N3CCCC(N3)C(=O)OCC(C)(C)C2)C1",
    "Target system": "485176-168-R4-J1-PDC complex spheroid growth",
    "Reported": "< 5.00"
  },
  {
    "Compound": "C=CC(=O)Nc1cc(Nc2nccc(-c3cn(C)c4ccccc34)n2)c(OC)cc1N(C)CCN(C)C + CCn1c(-c2cc(N3CCN(C)CC3)cnc2C(C)OC)c2c3cc(ccc31)-c1csc(n1)CC(NC(=O)C1CC1C)C(=O)N1CCCC(N1)C(=O)OCC(C)(C)C2",
    "Target system": "485176-168-R4-J1-PDC complex spheroid growth",
    "Reported": "< 6.00"
  },
  {
    "Compound": "NC1c2ccccc2OC12CCN(c1cnc3c(N4CCCc5ncccc54)n[nH]c3n1)CC2 (configuration not stated) + CCn1c(-c2cccnc2C(C)OC)c2c3cc(ccc31)N1CCOC(CC(NC(=O)C(C(C)C)N(C)C(=O)C3(F)CCN(C(=O)C#CC(C)(C)N(C)C)CC3)C(=O)N3CCCC(N3)C(=O)OCC(C)(C)C2)C1",
    "Target system": "485176-168-R4-J1-PDC complex spheroid growth",
    "Reported": "< 5.00"
  },
  {
    "Compound": "C=CC(=O)Nc1cc(Nc2nccc(-c3cn(C)c4ccccc34)n2)c(OC)cc1N(C)CCN(C)C + CCn1c(-c2cccnc2C(C)OC)c2c3cc(ccc31)N1CCOC(CC(NC(=O)C(C(C)C)N(C)C(=O)C3(F)CCN(C(=O)C#CC(C)(C)N(C)C)CC3)C(=O)N3CCCC(N3)C(=O)OCC(C)(C)C2)C1",
    "Target system": "485176-168-R4-J1-PDC complex spheroid growth",
    "Reported": "< 6.00"
  }
]
